Data credit: patent US20190248902A1

- Tested target: T1, human ASGR-1 (human, UniProt P07306 1-291)
- T1 construct: Stably expressed on CHO-S cells (CHO-S:huASGR-1); The method text says human or mouse ASGR-1 cells were used; also called huASGR-1; hASGR-1
- T1 sequence: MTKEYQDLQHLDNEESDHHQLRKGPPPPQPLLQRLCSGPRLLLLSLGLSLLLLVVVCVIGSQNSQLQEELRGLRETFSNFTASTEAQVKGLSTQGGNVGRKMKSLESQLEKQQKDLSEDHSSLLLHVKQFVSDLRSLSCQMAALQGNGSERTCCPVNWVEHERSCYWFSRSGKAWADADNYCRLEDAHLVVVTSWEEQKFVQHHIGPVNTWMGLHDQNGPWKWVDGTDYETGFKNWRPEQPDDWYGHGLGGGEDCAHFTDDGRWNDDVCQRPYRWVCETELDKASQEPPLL
- Protocol description: FACS ligand blocking on CHO-S ASGR-1 cells; labelled ligand biotin-GalNAc-PAA (synthetic sugar)
- Experimental: All ASGR-1 antibodies that bound either human or mouse ASGR-1 stable CHO—S cells were then tested for ligand blocking using both a protein ligand and a synthetic sugar ligand. […] The plates were read and processed similarly to the cell binding method except the signal now represents an inhibition curve and typically decreases a function of increasing antibody concentration. […]
Measure name: IC50 (nM)
Report the value in nM with no unit label.

binder="75G3 (antibody, V domains shown) VH: QVQLQQWGAGLLKPSETLSLTCAVYGGSLSGSYWSWIRQPPGKGLEWIGEINLSGSTNYNPSLKSRVTISVDTSKSQFSLTLRSVTAADTAVYYCARDYGGLDYWGQGTLVTVSS VL: EIVLTQSPGTLSLSPGERATLSCRARQNVDSSYLAWYQQKPGQAPRLLIYGASSRATGIPDRFSGSGSGTDFTLTISRLEPEDFAVFYCQQYERSPWTFGQGTKVEIK" measure_name=IC50 quantitative_result=115

[in] Fill in: IC50 of 4H6 (antibody, V domains shown, tested as antibody purified from hybridoma supernatant or made recombinantly) VH: QVQLVQSGAEVKKPGASVKVSCKASGYTFTDYYLHWVRQAPGQGLEWMGWIHPNSGGTNYAQKFQGRVTMTRDTSISTAYMGLSSLRSDDTAVYYCARDGTSSFDYWGQGTLVTVSS VL: DIQMTQSPSSVSASVGDRVTITCRASQGISRWLAWYQQKPGKAPKLLIYGASSLQSGVPSRFSGSGSGTDFTLTISSLQPEDFAIYYCQQANSFPFTFGPGTKVDIK is ___
[out] 8.1
